Listed compounds paired with reported TGI
test system: T-47D breast; assay: NCI tumour cell line growth inhibition, 48 h
readout.type: TGI

> print(dat)
                           structure.smiles        val
1  O=C(NCCNCCO)N/N=C/c1ccc([N+](=O)[O-])cc1   > 100 µM
2  COc1cc2c(c(OC)c1OC)C(=O)[C@H]1OC(=O)N[C@@H]21   > 100 µM
3     NC1=Nc2ccccc2Sc2nnc(-c3ccc(Cl)cc3)n21   > 100 µM
4        N=c1oc2ccc(Cl)cc2cc1C(=O)Nc1ccccc1  > 44.8 µM

* * *

test system: HCT-15 colon; test: NCI tumour cell line growth inhibition, 48 h
readout.type: TGI

> print(dat)
                                    compound  study.system       val
 1               Clc1ccc2nc(Oc3ccccc3)cnc2c1  HCT-15 colon  > 100 µM
 2  CSc1c(C(=O)Nc2ccc(Cl)cc2)c(N)[nH]c(=O)c1C#N  HCT-15 colon  > 100 µM
 3  CCOC(CCCN1CCC2(CC1)C(=O)N(C)CN2c1ccccc1)(OCC)c1ccc(F)cc1  HCT-15 colon   22.7 µM
 4  N#Cc1ccc(OCc2ccc3nc(-c4ccccc4)c(Cl)nc3c2)cc1  HCT-15 colon  > 100 µM
 5         c1ccc2c(c1)CCN2CCc1c[nH]c2ccccc12  HCT-15 colon   > 10 µM
 6     O=c1oc2ccc(Cl)cc2c(=O)n1-c1ccc(I)cc1F  HCT-15 colon   6.74 µM
 7  O=C1N[C@@H]([C@H](CCCCCO)OC(=O)c2ccccc2)CO1  HCT-15 colon  > 100 µM
 8  CC1CC/C(=C\c2ccc(N(C)C)cc2)C(=O)/C1=C/c1ccc(N(C)C)cc1 (stereo not given)  HCT-15 colon  > 100 µM
 9  O=C1C(=O)N(C2C3CC4CC(C3)CC2C4)C(=O)C(=O)C1c1nc2ccccc2o1 (stereo not given)  HCT-15 colon  > 100 µM
10  CC(=O)NC(CCCN(Cc1ccccc1)C(=O)N(CCCl)N=O)C(=O)NCc1ccccc1 (stereo not given)  HCT-15 colon  > 100 µM

* * *

test system: NCI-H460 lung
Labels: label 1 (active), label 0 (inactive)

> print(dat)
                           structure.smiles  discrete.label
1  COc1cnc2c(c1)C(=O)c1c-2n(CCCN2CCCC2)c(=O)c2cc(Cl)ccc12         label 1
2  CCOC(=O)c1c(C)n(Cc2ccc(Cl)cc2Cl)c2c1cc1oc(=O)c(=O)n3c(Cc4ccccc4)nc2c13         label 0
3  Fc1ccc(Nc2nccc(-c3c(-c4ccc(C(F)(F)F)cc4)nn4ncccc34)n2)cc1F         label 0

* * *

test system: NCI/ADR-RES ovarian; test: NCI tumour cell line growth inhibition, 48 h
Listed compounds paired with reported TGI
readout.type: TGI (µM)

> print(dat)
                                   compound         study.system  value.modifier   val
1  CS(=O)(=O)Nc1cc(-c2ccc3ncnc(Nc4ccc5c(cnn5Cc5ccc(F)cc5)c4)c3c2)cnc1Cl  NCI/ADR-RES ovarian               >   100
2  COc1cc(/C=C(/c2ccccc2)[N+](=O)[O-])c(OC)c2c1OCO2  NCI/ADR-RES ovarian               =  7.37
3        NC(N)=NC(N)=Nc1c(F)c(F)c(F)c(F)c1F  NCI/ADR-RES ovarian               >   100
4  CN(C)c1ccc(N=Nc2c([O-])ccc3ccccc23)cc1.[C-]#[O+].[C-]#[O+].[Ir]  NCI/ADR-RES ovarian               =  57.7
5  CC1=CCS(=O)(=O)C1C(O)C1=C(C)CCCC1(C)C (configuration not stated)  NCI/ADR-RES ovarian               >   100
6  Cc1ccc(C(=O)C#Cc2cn(C3CC(O)C(CO)O3)c(=O)[nH]c2=O)cc1 (configuration not stated)  NCI/ADR-RES ovarian               >   100
7  C=C[C@]1(C)C=C2C(=O)[C@@]3(O)OC[C@@]4(CCCC(C)(C)C43O)C2(O)C(O)C1 (some centres not stated)  NCI/ADR-RES ovarian               =  6.62

Data origin, for the record: PubChem BioAssay (NCI)
